- System: KM12 colon
- test_details: NCI-60 one-dose screen, 48 h
- condition_summary: 10 µM
The panel holds about 83,000 compounds, 20% with a hit somewhere; the sample as a whole holds those more often. The source made the active and inactive calls. The calls were made as follows: active = growth percent below 10; inactive = the rest.
Valid outcomes are listed here; reply with one: yes (1) for active, no (0) for inactive

# example entries with known answers
molecule	label
Nc1c(Br)cc(Br)c2c1[nH]c(=O)c1ccccc12	no (0)
Cc1ccc(C(SCC(N)C(=O)O)(c2ccc(C)cc2)c2ccc(C)cc2)cc1 (centres undefined)	yes (1)
COC1OC(COS(=O)OC)C(O)C(O)C1OS(=O)OC (centres undefined)	no (0)

With those in mind, consider the next molecule.
Q: Dear all, I need the recorded test outcome for `Nc1cc(Br)c(-c2nn3c(CCC(=O)c4nc5ccccc5[nH]4)nnc3s2)c(Br)c1` , thank you.
A: no (0)

----------
- Test system: UACC-257 melanoma
- test_details: NCI-60 one-dose screen, 48 h
- condition_summary: 10 µM
About 83,000 compounds went through this panel and 20% of them were active in at least one assay; those are over-represented in the sample as a whole. Active and inactive are the calls of the source. Rule for the calls: active = growth percent below 10; inactive = the rest.
Valid outcomes are listed here; reply with one: Yes (active), No (inactive)

molecule	label
C=CCSC(CC)(CC)C(=O)NC	No

Q: Dear all, I need the recorded test outcome for O=c1oc2c(cc1-c1ccc(F)cc1)C(O)Oc1ccccc1-2 (centres undefined) , thank you.
A: No

Q: Dear all, I need the recorded test outcome for `CC1(C)N=C(N)N=C(N)N1c1cccc(C#N)c1` , thank you.
A: No

Q: Dear all, I need the recorded test outcome for `OCCn1cccn1` , thank you.
A: No

Q: Dear all, I need the recorded test outcome for `COC(=O)c1c[nH]c2cc(OC(C)C)c(OC(C)C)cc2c1=O` , thank you.
A: No

Q: Dear all, I need the recorded test outcome for `O=c1cn[nH]c2ccc(Br)cc12` , thank you.
A: No

----------
- Test system: HCT-116 colon
- test_details: NCI-60 one-dose screen, 48 h
- condition_summary: 10 µM
This is part of a sample that, as a whole, favours compounds with a hit. Of some 83,000 tested, about 20% had one in any assay. Activity calls are given as the source filed them. Rule for the calls: active = growth percent below 10; inactive = the rest.
Valid outcomes are listed here; reply with one: active, inactive

# example entries with known answers
COc1ccc(/C(C#N)=C/c2cccc(OC)c2OC)cc1 inactive
Cc1nn(-c2ccccc2)c2nc(Cl)c(C=O)c(-c3ccccc3)c12 active
COc1cc(N)c2ncccc2c1SC inactive

Q: Dear all, I need the recorded test outcome for `CCOC(=O)c1cc(C(=O)c2ccc(Cl)cc2)n2ccc(-c3cc[n+](CC(=O)c4ccc(OC)cc4)cc3)cc12` , thank you.
A: active

----------
- Tested on: OVCAR-5 ovarian
- test_details: NCI-60 one-dose screen, 48 h (100 = growth as untreated, 0 = no growth, -100 = all killed)
- condition_summary: 10 µM
This is part of a sample that, as a whole, favours compounds with a hit. Of some 83,000 tested, about 20% had one in any assay.
Collected growth values appear next to each entry.
Give the value, in units of %, as a plain number.

Look over these answered cases.
compound	growth [%]
CCn1cc(CNc2ccc(C(=O)Nc3ccc4ccccc4c3)cc2)c(C)n1	94.4
CN(C)CCC1(c2ccccc2)CCN(C)C1=O (centres undefined)	107
O=C(O)c1cn(C2CC2)c2cc(N3CCN(C(=O)c4cc(-c5ccc(Cl)cc5)nc5ccccc45)CC3)c(F)cc2c1=O	98.2

Pending compound:
Q: Give recorded growth with OVCAR-5 ovarian for the following compound: `COc1cc2cc(Oc3ccc(NC(=O)c4cccc(C(F)(F)F)c4)cc3)c(C)nc2cc1OC`
A: 70.2
